B1: EEHEE_rd4_0763 (parent)
chain: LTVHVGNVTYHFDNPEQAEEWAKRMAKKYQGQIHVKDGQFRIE

variants of: B1; assay: folding stability dG (cDNA display proteolysis); higher = more stable; conditions: PBS, room temperature
The variants listed here are annotated with their folding stability dG.
Write it as a number; the unit kcal/mol goes unstated.

>>> quantitative_readout("Q39V")
1.57
>>> quantitative_readout("I42M")
0.632
>>> quantitative_readout("N14P")
-0.002
>>> quantitative_readout("L1W")
3.2
>>> quantitative_readout("H34L")
1.75
>>> quantitative_readout("Y29P")
0.306
>>> quantitative_readout("E19L")
2.25
>>> quantitative_readout("R41K")
1.38
>>> quantitative_readout("E43A")
1.34
>>> quantitative_readout("T9I")
1.92

Query block: What folding stability dG value was documented for this variant, Y29C ?
Result block: 2.16

Query block: What folding stability dG value was documented for this variant, H4F ?
Result block: 1.6

Query block: What folding stability dG value was documented for this variant, V3T ?
Result block: 0.36

Query block: What folding stability dG value was documented for this variant, N14W ?
Result block: 1.24

Query block: What folding stability dG value was documented for this variant, K36S ?
Result block: 1.69

Query block: What folding stability dG value was documented for this variant, A22P ?
Result block: -0.823

Query block: What folding stability dG value was documented for this variant, F40L ?
Result block: 2.01

Query block: What folding stability dG value was documented for this variant, E43W ?
Result block: 1.55

Query block: What folding stability dG value was documented for this variant, K36I ?
Result block: 2.15

Query block: What folding stability dG value was documented for this variant, V3R ?
Result block: 0.352
